Biological target: T1, cynomolgus BLyS (full length, arginine to histidine at position 132) on CHO-K1 cells (cynomolgus, UniProt Q9Y275 1-285 (human entry))
T1 construct: also called cyno BLyS; CHO-K1 cynoBLyS
T1 chain: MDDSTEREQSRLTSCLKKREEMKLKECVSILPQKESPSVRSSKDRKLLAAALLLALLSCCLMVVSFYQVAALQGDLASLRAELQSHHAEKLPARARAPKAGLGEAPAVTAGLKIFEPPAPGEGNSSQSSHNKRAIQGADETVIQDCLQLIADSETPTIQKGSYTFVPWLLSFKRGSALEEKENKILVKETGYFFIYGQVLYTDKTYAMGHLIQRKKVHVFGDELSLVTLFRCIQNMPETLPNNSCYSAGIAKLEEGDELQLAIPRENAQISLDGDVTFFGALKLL
Test: flow cytometry, CHO-K1 cynoBLyS cells, antibody 2.67 nM
Items are presented alongside their recorded MFI.
Quick note: give the figure in MFI, leave out the unit.

binder="111D10D6G3 (antibody, V domains shown, Mouse hybridoma monoclonal antibody purified on Protein G) VH: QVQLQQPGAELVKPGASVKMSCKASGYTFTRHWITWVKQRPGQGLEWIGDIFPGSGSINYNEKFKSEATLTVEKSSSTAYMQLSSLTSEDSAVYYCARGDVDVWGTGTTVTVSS VL: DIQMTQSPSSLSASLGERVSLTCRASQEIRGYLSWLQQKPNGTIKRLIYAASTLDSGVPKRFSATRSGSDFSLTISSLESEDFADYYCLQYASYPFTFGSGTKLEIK" readout_label=MFI reported_measurement=510

Proceeding to the next binder to report its MFI.
Look up MFI for this binder: L9G7 (antibody, V domains shown, From a human naive scFv phage library; also called human BLyS antibody L9G7) VH: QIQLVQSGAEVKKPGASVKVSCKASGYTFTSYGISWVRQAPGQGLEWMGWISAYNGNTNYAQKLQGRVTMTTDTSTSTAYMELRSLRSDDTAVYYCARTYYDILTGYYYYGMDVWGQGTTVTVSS VL: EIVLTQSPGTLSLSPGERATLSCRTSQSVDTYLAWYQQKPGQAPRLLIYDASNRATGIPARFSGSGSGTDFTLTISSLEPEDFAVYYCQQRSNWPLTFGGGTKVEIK
1280
